# viability at 28.5 h, 10 µM per entry
- TEST: in vitro
- REPORTED_CONDITIONS: human, hela cells, % viability
MEASUREMENT_LABEL: viability at 28.5 h, 10 µM

compound=S=C(NCCN1CCCCC1)NCc1ccco1 measurement_label="viability at 28.5 h, 10 µM" experimental_value=107%
compound=Cc1c(C(=O)N2CCS(=O)(=O)CC2)nnn1-c1ccc2ncccc2c1 measurement_label="viability at 28.5 h, 10 µM" experimental_value=112%
compound=CC(C)(C)NC(=O)CN1CCN(C(=O)CSc2n[nH]c(=O)n2C2CC2)CC1 measurement_label="viability at 28.5 h, 10 µM" experimental_value=94.5%
compound="COc1cc(OC)nc(C(NC(=O)C2CCN(CCc3c[nH]c4ccccc34)CC2)c2ccccc2C)n1 (stereo not drawn)" measurement_label="viability at 28.5 h, 10 µM" experimental_value=104%
compound="CC(=O)N1N=C(COc2ccc3c(c2)OCO3)OC1c1ccc(C)cc1 (stereo not drawn)" measurement_label="viability at 28.5 h, 10 µM" experimental_value=83%
compound=Cc1cc(CNS(=O)(=O)c2cccc3nonc23)nn1C measurement_label="viability at 28.5 h, 10 µM" experimental_value=98.2%
compound=Cc1ccccc1CN1CC[C@H]2[C@@H](C1)[C@H](c1ccsc1)CN2C(=O)c1ccccc1 measurement_label="viability at 28.5 h, 10 µM" experimental_value=100%
compound=CSCCCNC(=O)c1ccc2nc[nH]c2c1 measurement_label="viability at 28.5 h, 10 µM" experimental_value=116%
compound=O=C1CN(S(=O)(=O)c2ccc(F)cc2Cl)CCN1 measurement_label="viability at 28.5 h, 10 µM" experimental_value=109%

Every entry's value here was drawn from paper PMC12040169.
